From: the supplement of paper PMC10567573

B1: ZBTB22 (parent)
chain: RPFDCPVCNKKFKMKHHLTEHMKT

Variants of: B1
experiment.summary: protein stability index of a GFP-peptide fusion (GPS, HEK-293T) (PSI 1-6); higher = more stable;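 note: lentivirally expressed fusions sorted by FACS into six bins by GFP to DsRed ratio, PSI derived from sequencing read proportions per bin multiplied by bin number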
condition.parameters: c terminus: a fixed tail appended
Provide the recorded protein stability index for the entries that follow.
Lab note: jot the number down without any unit.

Reported protein stability index for C8G : what is it? 2.8

Same again, this time with D4E 3.6

Same again, this time with M14Q 3.17

Same again, this time with M14S 3.96

Same again, this time with K10E 3.01
